Reference source for all entries: the supplement of paper PMC9732359

- Assay Summary: protein stability index of a GFP-peptide fusion (yeast GPS) (PSI 1-4); higher = more stable; sorted into four equal gates, so the index is relative within each strain
- Protocol Conditions: doa10∆
Consider the following partition of reported protein stability index into named classes: low bracket: < 2; middle bracket: ≥ 2 and < 3; high bracket: ≥ 3

• CFICLLHLANEHGLQIT [BRN1] = middle bracket

Q: Class? Entry: KAPNAVVITFEKEDHTL [RPB11]
Result: low bracket

Q: Class? Entry: LGKGGAKRHRKILRDNI [HHF1]
Result: high bracket

Q: Class? Entry: EAIRDPKNSSSPVQIAF [SSN8]
Result: middle bracket

Q: Class? Entry: KSESDELQMRSFLKEGD [RRP4]
Result: high bracket

Q: Class? Entry: LVNIRTQTSKEQEIENN [ITC1]
Result: middle bracket
